Where these numbers come from: patent US20250388664A1

Target: T1, truncated cTfR1 of SEQ ID NO:123 (cynomolgus monkey, UniProt Q5RDH6 122-760 (Pongo abelii entry))
T1 construct: also called cynomolgus TfR1
T1 chain: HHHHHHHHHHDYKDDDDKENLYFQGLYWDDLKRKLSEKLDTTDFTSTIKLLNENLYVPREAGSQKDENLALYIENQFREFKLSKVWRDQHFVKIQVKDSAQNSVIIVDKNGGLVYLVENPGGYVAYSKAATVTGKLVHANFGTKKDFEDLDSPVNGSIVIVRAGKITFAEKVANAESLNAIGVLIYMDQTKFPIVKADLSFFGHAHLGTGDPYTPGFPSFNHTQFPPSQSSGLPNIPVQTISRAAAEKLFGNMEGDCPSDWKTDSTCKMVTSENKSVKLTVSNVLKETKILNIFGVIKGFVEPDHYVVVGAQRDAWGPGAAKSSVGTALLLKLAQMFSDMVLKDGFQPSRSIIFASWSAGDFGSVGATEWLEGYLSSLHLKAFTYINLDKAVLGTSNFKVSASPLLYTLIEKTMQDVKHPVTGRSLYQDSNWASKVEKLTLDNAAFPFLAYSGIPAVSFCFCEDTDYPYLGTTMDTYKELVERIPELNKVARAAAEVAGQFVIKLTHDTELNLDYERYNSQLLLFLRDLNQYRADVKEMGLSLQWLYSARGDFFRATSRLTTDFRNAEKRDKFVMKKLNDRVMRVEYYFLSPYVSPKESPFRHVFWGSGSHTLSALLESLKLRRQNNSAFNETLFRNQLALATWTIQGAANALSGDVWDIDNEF
Assay: SPR, FLAG-captured TfR1, scFv injected, 1:1 fit
This section presents binders with their documented koff values.
Write it as a number; the unit s⁻¹ goes unstated.

Binder: h26D3-HC6_DS, VL-first (scFv) scFv: DIQMTQSPSSVSASVGDRVTITCKSSQSLLYSTNQKNYLAWYQQKPGKAPKLLIYWASTRESGVPSRFSGSGSGTDFTLTISSLQPEDFATYYCQQYFIYPRTFGCGTKVEIKGGGGSGGGGSGGGGSGGGGSEVQLVQSGAEVKKPGSSVKVSCKASGYIFTDYNMDWVRQAPGQCLEWIGDINPDADTTSYNEKFKGRATLTVDKSTSTAYMELSSLRSEDTAVYYCARGGYSGSSYYHPMDYWGQGTLVTVSS
Reading unit: s⁻¹
koff: 0.0114

For the next question, use this binder.
Input line: # koff lookup, item h26D3 HC6 DS V11R (scFv, also called h26D3 DS V11R) scFv: HHHHHHGGGGSGGGGSGGGGSGGGGSDIQMTQSPSSVSASVGDRVTITCKSSQSLLYSTNQKNYLAWYQQKPGKAPKLLIYWASTRESGVPSRFSGSGSGTDFTLTISSLQPEDFATYYCQQYFIYPRTFGCGTKVEIKGGGGSGGGGSGGGGSGGGGSEVQLVQSGAERKKPGSSVKVSCKASGYIFTDYNMDWVRQAPGQCLEWIGDINPDADTTSYNEKFKGRATLTVDKSTSTAYMELSSLRSEDTAVYYCARGGYSGSSYYHPMDYWGQGTLVTVSS
Output line: 0.0113
